- assayTarget: T1, cynomolgus IL-17A (cynomolgus, UniProt Q16552 24-155 (human entry), limits assumed)
- T1 construct: also called cyno IL-17A; cynoIL-17A
- T1 chain: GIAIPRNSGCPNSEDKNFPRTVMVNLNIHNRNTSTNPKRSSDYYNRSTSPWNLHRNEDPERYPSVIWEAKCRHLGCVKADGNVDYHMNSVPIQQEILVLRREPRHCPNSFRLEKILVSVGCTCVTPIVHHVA
- experimentalDetails: competition ELISA: mAb against biotinylated cyno IL-17A binding to coated IL-17RA-Fc

binder	IC50 / nM
mAb4538 (antibody, human IgG1, lambda, V domains shown, Framework-engineered mAb; also called engineered form of MOR7706) VH: QVQLQQSGPGLVKPSQTLSLTCAISGDSVSSSSAAWGWIRQSPSRGLEWLGRISYRSKWYNDYAVSVKSRITINPDTSKNQFSLQLNSVTPEDTAVYYCAREVDSMYYSYFDIWGQGTLVTVSS VL: EIVLTQSPATLSLSPGERATLSCRASQNVWAFYLAWYQQKPGQAPRLLIYGASNRATGIPARFSGSGSGTDFTLTISSLEPEDFAVYYCQQYRSTLSLTFGQGTKVEIKG	0.636
mAb732 (antibody, human IgG1, lambda, V domains shown, Framework-engineered mAb; also called engineered form of MOR7775) VH: QVQLQQSGPGLVKPSQTLSLTCAISGDSVSSSSAAWGWIRQSPSRGLEWLGRISYRSKWYNDYAVSVKSRITINPDTSKNQFSLQLNSVTPEDTAVYYCAREVDSMYYSYFDIWGQGTLVTVSS VL: EIVLTQSPATLSLSPGERATLSCRASQNVWAFYLAWYQQKPGQAPRLLIYGASNRATGIPARFSGSGSGTDFTLTISSLEPEDFAVYYCTQYYSSPSLTFGQGTKVEIKG	0.463
